Data origin: ChEMBL document CHEMBL4765382

Experimental system: 5-hydroxytryptamine receptor 7 (Homo sapiens, UniProt P34969)
Sequence (P34969 whole entry): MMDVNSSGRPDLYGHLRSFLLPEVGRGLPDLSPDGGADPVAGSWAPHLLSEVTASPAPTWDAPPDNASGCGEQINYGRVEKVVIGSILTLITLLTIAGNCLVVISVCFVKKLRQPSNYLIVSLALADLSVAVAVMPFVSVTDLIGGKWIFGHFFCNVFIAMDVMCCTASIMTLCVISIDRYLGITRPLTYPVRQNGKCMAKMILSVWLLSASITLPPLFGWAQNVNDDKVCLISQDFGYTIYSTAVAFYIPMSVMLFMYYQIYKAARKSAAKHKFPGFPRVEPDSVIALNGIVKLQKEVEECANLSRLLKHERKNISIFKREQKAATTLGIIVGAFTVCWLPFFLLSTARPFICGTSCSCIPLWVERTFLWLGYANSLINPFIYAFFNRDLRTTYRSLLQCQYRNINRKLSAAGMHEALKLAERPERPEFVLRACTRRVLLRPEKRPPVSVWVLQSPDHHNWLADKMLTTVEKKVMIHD
Test name: Displacement of [3H]-5-CT from human 5HT7 receptor expressed in HEK293 cells measured after 1 hr by microbeta counting method
Format: cell-based
Readout label: log10 Ki (log10 of the value in nM)

{"columns": ["Compound", "Experimental system", "Numeric value"],
 "data": [
  ["COc1ccccc1CNC(=O)CCCN1CCN(c2ccccc2OC)CC1", "5-hydroxytryptamine receptor 7 (Homo sapiens, UniProt P34969)", 2.94],
  ["COc1ccccc1N1CCN(CCCC(=O)Nc2cccc(C(C)(C)C)c2)CC1", "5-hydroxytryptamine receptor 7 (Homo sapiens, UniProt P34969)", 2.11],
  ["CCC(C)c1ccc(NC(=O)CCCCCN2CCN(c3ccccc3OC)CC2)cc1 (configuration not stated)", "5-hydroxytryptamine receptor 7 (Homo sapiens, UniProt P34969)", 2.41],
  ["COc1ccccc1N1CCN(CCCCCC(=O)Nc2cccc(C(C)(C)C)c2)CC1", "5-hydroxytryptamine receptor 7 (Homo sapiens, UniProt P34969)", 2.28],
  ["COc1ccccc1N1CCN(CCCCCC(=O)Nc2ccccc2O)CC1", "5-hydroxytryptamine receptor 7 (Homo sapiens, UniProt P34969)", 2.40],
  ["COc1ccccc1N1CCN(CCCCC(=O)Nc2cccc(C(C)(C)C)c2)CC1.Cl", "5-hydroxytryptamine receptor 7 (Homo sapiens, UniProt P34969)", 1.88],
  ["COc1ccccc1N1CCN(CCCCCC(=O)NCc2ccccc2O)CC1", "5-hydroxytryptamine receptor 7 (Homo sapiens, UniProt P34969)", 2.46],
  ["COc1ccccc1N1CCN(CCCCCC(=O)Nc2cccc(C(C)C)c2)CC1", "5-hydroxytryptamine receptor 7 (Homo sapiens, UniProt P34969)", 2.15],
  ["COc1ccccc1N1CCN(CCCC(=O)NCc2ccccc2O)CC1", "5-hydroxytryptamine receptor 7 (Homo sapiens, UniProt P34969)", 2.50],
  ["COc1ccccc1N1CCN(CCCC(=O)Nc2ccccc2C(N)=O)CC1", "5-hydroxytryptamine receptor 7 (Homo sapiens, UniProt P34969)", 3.06],
  ["COc1ccccc1N1CCN(CCCCC(=O)Nc2cccc(C(=O)OC(C)(C)C)c2)CC1", "5-hydroxytryptamine receptor 7 (Homo sapiens, UniProt P34969)", 2.97],
  ["COc1ccccc1N1CCN(CCCCC(=O)Nc2ccc(C(C)(C)C)cc2)CC1", "5-hydroxytryptamine receptor 7 (Homo sapiens, UniProt P34969)", 2.70],
  ["COc1ccccc1N1CCN(CCCCCC(=O)Nc2ccc(C(C)(C)C)cc2)CC1", "5-hydroxytryptamine receptor 7 (Homo sapiens, UniProt P34969)", 2.71],
  ["COc1ccccc1N1CCN(CCCC(=O)Nc2ccc(C(C)C)cc2)CC1", "5-hydroxytryptamine receptor 7 (Homo sapiens, UniProt P34969)", 2.98],
  ["COc1ccccc1N1CCN(CCCC(=O)Nc2ccccc2O)CC1", "5-hydroxytryptamine receptor 7 (Homo sapiens, UniProt P34969)", 2.67],
  ["COc1ccccc1N1CCN(CCCC(=O)Nc2cc(C(C)(C)C)ccc2O)CC1", "5-hydroxytryptamine receptor 7 (Homo sapiens, UniProt P34969)", 2.52],
  ["COc1ccccc1N1CCN(CCCCC(=O)Nc2ccccc2O)CC1", "5-hydroxytryptamine receptor 7 (Homo sapiens, UniProt P34969)", 2.48],
  ["COc1ccccc1N1CCN(CCCC(=O)Nc2ccc(C(=O)OC(C)(C)C)cc2)CC1", "5-hydroxytryptamine receptor 7 (Homo sapiens, UniProt P34969)", 3.52],
  ["COc1ccccc1N1CCN(CCCCC(=O)NCc2ccc(C(C)(C)C)cc2)CC1", "5-hydroxytryptamine receptor 7 (Homo sapiens, UniProt P34969)", 2.59],
  ["COc1ccccc1CNC(=O)CCCCCN1CCN(c2ccccc2OC)CC1", "5-hydroxytryptamine receptor 7 (Homo sapiens, UniProt P34969)", 2.71],
  ["COc1ccccc1N1CCN(CCCCCC(=O)Nc2cc(C(C)(C)C)ccc2O)CC1", "5-hydroxytryptamine receptor 7 (Homo sapiens, UniProt P34969)", 2.19],
  ["CCC(C)c1ccc(NC(=O)CCCCN2CCN(c3ccccc3OC)CC2)cc1 (configuration not stated)", "5-hydroxytryptamine receptor 7 (Homo sapiens, UniProt P34969)", 2.51],
  ["COc1ccccc1N1CCN(CCCCCC(=O)Nc2ccc(C(=O)OC(C)(C)C)cc2)CC1", "5-hydroxytryptamine receptor 7 (Homo sapiens, UniProt P34969)", 2.90],
  ["COc1ccccc1N1CCN(CCCCC(=O)Nc2cc(C(C)(C)C)ccc2O)CC1", "5-hydroxytryptamine receptor 7 (Homo sapiens, UniProt P34969)", 2.20],
  ["CCC(C)c1ccc(NC(=O)CCCN2CCN(c3ccccc3OC)CC2)cc1 (configuration not stated)", "5-hydroxytryptamine receptor 7 (Homo sapiens, UniProt P34969)", 2.55],
  ["COc1ccccc1N1CCN(CCCCC(=O)Nc2ccccc2C(N)=O)CC1", "5-hydroxytryptamine receptor 7 (Homo sapiens, UniProt P34969)", 3.27],
  ["COc1ccccc1N1CCN(CCCCCC(=O)Nc2ccc(C(C)C)cc2)CC1", "5-hydroxytryptamine receptor 7 (Homo sapiens, UniProt P34969)", 2.64],
  ["COc1ccccc1N1CCN(CCCC(=O)Nc2ccc(C(C)(C)C)cc2)CC1", "5-hydroxytryptamine receptor 7 (Homo sapiens, UniProt P34969)", 3.08],
  ["COc1ccccc1N1CCN(CCCCC(=O)Nc2cccc(C(C)C)c2)CC1.Cl", "5-hydroxytryptamine receptor 7 (Homo sapiens, UniProt P34969)", 2.18],
  ["COc1ccccc1N1CCN(CCCCC(=O)NCc2ccccc2O)CC1", "5-hydroxytryptamine receptor 7 (Homo sapiens, UniProt P34969)", 2.54],
  ["COc1ccccc1CNC(=O)CCCCN1CCN(c2ccccc2OC)CC1", "5-hydroxytryptamine receptor 7 (Homo sapiens, UniProt P34969)", 2.56],
  ["COc1ccccc1N1CCN(CCCC(=O)Nc2cccc(C(C)C)c2)CC1", "5-hydroxytryptamine receptor 7 (Homo sapiens, UniProt P34969)", 2.20]
]}
